Reported values of IC50 for individual entries
Molecular target: GST-tagged truncated human mutant G2019S LRRK2 (Homo sapiens, UniProt Q5S007, G2019S)
Construct: GST-tagged truncated human mutant G2019S LRRK2; purchased Life Technologies Corporation (Carlsbad, CA)
Sequence (Q5S007 970-2527 G2019S limits assumed): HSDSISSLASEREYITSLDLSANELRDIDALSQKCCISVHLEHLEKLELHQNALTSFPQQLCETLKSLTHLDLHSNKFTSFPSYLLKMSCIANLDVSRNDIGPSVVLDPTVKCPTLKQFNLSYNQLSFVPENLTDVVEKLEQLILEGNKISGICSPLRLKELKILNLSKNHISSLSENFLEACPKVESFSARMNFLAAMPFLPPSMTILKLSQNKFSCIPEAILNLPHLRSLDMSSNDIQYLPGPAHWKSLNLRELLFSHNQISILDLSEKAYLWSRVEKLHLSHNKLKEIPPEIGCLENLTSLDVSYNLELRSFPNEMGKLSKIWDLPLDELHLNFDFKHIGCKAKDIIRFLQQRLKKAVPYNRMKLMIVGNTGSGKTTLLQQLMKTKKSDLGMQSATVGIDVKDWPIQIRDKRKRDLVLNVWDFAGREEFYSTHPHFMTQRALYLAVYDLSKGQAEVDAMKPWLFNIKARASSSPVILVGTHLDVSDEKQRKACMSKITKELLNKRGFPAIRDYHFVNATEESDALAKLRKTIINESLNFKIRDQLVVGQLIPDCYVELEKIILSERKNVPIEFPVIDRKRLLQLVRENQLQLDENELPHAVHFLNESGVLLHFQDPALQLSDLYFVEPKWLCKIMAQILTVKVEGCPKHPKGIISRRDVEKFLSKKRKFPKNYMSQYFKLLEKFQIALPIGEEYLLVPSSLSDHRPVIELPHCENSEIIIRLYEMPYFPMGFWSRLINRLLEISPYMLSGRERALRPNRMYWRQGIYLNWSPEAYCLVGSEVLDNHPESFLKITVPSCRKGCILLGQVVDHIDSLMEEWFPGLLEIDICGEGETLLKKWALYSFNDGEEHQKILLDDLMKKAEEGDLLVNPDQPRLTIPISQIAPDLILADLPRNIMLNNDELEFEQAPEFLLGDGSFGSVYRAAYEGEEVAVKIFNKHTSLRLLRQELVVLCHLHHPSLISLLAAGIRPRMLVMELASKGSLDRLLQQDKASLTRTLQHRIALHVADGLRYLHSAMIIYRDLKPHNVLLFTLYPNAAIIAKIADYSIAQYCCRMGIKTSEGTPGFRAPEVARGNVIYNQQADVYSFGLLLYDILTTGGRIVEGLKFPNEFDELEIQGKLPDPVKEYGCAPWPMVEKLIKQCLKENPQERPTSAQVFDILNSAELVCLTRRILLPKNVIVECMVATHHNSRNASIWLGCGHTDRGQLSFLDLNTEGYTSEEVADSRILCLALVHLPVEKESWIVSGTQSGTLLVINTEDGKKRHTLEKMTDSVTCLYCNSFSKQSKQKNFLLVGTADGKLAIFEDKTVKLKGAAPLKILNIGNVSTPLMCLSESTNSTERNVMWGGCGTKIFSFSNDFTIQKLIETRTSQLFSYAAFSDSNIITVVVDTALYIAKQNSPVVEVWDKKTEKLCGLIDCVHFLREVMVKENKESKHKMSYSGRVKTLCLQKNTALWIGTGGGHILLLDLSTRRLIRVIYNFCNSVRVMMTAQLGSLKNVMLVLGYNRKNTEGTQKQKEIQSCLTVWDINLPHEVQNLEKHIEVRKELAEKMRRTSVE
Assay: LRRK2 G2019S Km ATP LanthaScreen assay
Type: biochemical
Conditions: 134 μM ATP (Km ATP), LRRKtide substrate, mean of several tests, read-out: LRRK2 pIC50 (converted)

| compound | IC50 / nM |
| --- | --- |
| CCC1C(C(=O)Nc2cc3cc(N4CCN(C5(C)CCOC5)CC4)c(C)cc3cn2)C1c1cnn(C)c1 (single isomer, unassigned) [Ex-10.37] | 0.0813 |
| CC1(C2CCOC2)CC1C(=O)Nc1cc2cc(N3CCN(C4(C)COCC4O)CC3)c(Cl)cc2cn1 (single isomer, unassigned) [Ex-10.82] | 0.1 |
| CC1(N2CCN(c3cc4cc(NC(=O)C5CC5c5ccccn5)ncc4cc3F)CC2)COCC1O (single isomer, unassigned) [Ex-2.23] | 0.316 |
| CCC1(N2CCN(c3cc4cc(NC(=O)C5CC56CCOCC6)ncc4cc3Cl)CC2)COCC1O (single isomer, unassigned) [Ex-2.22] | 0.372 |
| Cc1cc2cnc(NC(=O)C3CC3c3cnn(C)c3C(F)(F)F)cc2cc1N1CCN(C2(C)CCOC2)CC1 (single isomer, unassigned) [Ex-10.35] | 1.7 |
| CC1(N2CCN(c3cc4cc(NC(=O)C5CC56CC6(F)F)ncc4cc3Cl)CC2)COCC1O (single isomer, unassigned) [Ex-3.2] | 1.07 |
